- test.system: CYP450 2D6 (Homo sapiens, UniProt P10635)
- Sequence (P10635 whole entry): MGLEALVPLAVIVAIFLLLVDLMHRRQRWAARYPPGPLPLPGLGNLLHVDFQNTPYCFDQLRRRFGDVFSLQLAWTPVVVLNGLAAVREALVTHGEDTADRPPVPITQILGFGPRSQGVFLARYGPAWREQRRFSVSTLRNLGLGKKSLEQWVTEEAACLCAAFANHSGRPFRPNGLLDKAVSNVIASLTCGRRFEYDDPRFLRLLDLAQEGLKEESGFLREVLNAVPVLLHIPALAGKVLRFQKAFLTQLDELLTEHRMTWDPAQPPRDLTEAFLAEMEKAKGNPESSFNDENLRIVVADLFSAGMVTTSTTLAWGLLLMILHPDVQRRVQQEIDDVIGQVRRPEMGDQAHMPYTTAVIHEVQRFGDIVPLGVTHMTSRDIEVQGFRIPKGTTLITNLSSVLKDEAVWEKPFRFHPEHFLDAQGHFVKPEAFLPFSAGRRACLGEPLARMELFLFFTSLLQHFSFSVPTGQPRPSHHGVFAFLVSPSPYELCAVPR
- procedure.summary: CYP inhibition assay
- Assay type: in vitro ADME
value.kind: IC50

{"smiles.representation": "CNC(=O)c1cnc2cc1Nc1cc(cc(-c3ccn(C)n3)c1OC)CCOCc1cccc(n1)N2", "test.system": "CYP450 2D6 (Homo sapiens, UniProt P10635)", "result": "> 50 µM"}
